test system: NIH3T3; experiment: Cytotoxic Profiling of Annotated Libraries Using Quantitative High-Throughput Screening (AID 1296008); settings: Five cell lines viability, CellTiter-Glo ATP luminescence, 48-72 h; hits give low values; further: on the % scale 0 is the no-effect control and ±100 the full control effect; nearly all actives have a fitted effect of over 60% in size
Inconclusive results are not listed.
What max response was measured for each of the following?
Give bare numbers, in %.

Illustrative cases are given below, each with its answer.
{"columns": ["molecule", "unit.info", "quantitative.result"],
 "data": [
  ["C/C=C/C=C/C=C/C(=O)O[C@@H]1C=C(CO)C(O)(C(=O)O)[C@@]2(C)CCCC(C)(C)[C@H]12 (some centres not stated)", "%", -2.73],
  ["C=C1CCC2[C@@](C)(C=O)CCC[C@]2(C)[C@H]1CC/C(C)=C/CO (some centres not stated)", "%", 1.05]
]}

Record max response for all entries; do not skip any.
1. C[C@@H]1O[C@@H](O[C@H]2[C@H](O)[C@@H](O)[C@H](OC[C@H]3O[C@@H](OC(=O)[C@]45CCC(C)(C)C[C@H]4C4=CCC6[C@@]7(C)C[C@H](O)[C@H](O[C@@H]8O[C@H](CO)[C@@H](O)[C@H](O)[C@H]8O)[C@@](C)(C(=O)O)C7CC[C@@]6(C)[C@]4(C)CC5)[C@H](O[C@@H]4O[C@H](CO)[C@@H](O)[C@H](O)[C@H]4O)[C@@H](O)[C@@H]3O)O[C@@H]2CO)[C@H](O)[C@H](O)[C@H]1O (some centres not stated)
2. COc1cc(/C=C/C(=O)OC2CC(OC(C)=O)C(OC(C)=O)C3C2CCC2C(=O)OC(c4ccoc4)CC23C)ccc1O[C@@H]1O[C@H](CO)[C@@H](O)[C@H](O)[C@H]1O (some centres not stated)
3. COCCN(C)Cc1ccc2nc3sc(C(=O)N(C)C4CCCCC4)cn3c2c1
4. CC(C)c1cc2c(c(O)c1O[C@@H]1O[C@H](CO)[C@@H](O)[C@H](O)[C@H]1O)CC1(O)CCC(O)C(C)(C)C1CC2 (some centres not stated)
5. CCNC(=O)[C@@H]1CCCN1C(=O)[C@H](CCCN=C(N)N)NC(=O)[C@H](CC(C)C)NC(=O)[C@@H](C)NC(=O)[C@H](Cc1ccc(O)cc1)NC(=O)[C@H](CO)NC(=O)[C@H](Cc1c[nH]c2ccccc12)NC(=O)[C@H](Cc1cnc[nH]1)NC(=O)[C@@H]1CCC(=O)N1
6. CC12CCC3c4ccc(O)cc4CCC3C1CCC2OC1OC(C(=O)O)C(O)C(O)C1O (configuration not stated)

Reply |
1: 3.41; 2: -18.6; 3: -0.706; 4: 0.487; 5: -1.38; 6: 1.3

Fill in max response for each of the 3 molecules listed.
1. C=C1C(=O)OC2/C=C(\C)CC/C=C(\C(=O)O)CC/C=C(\C)CCC12 (configuration not stated)
2. O=C(O)c1cc(O[C@@H]2O[C@H](CO[C@@H]3OC[C@@H](O)[C@H](O)[C@H]3O)[C@@H](O)[C@H](O)[C@H]2O)c2ccccc2c1O
3. COc1cc(C2Oc3c(O)cc(CCCO)cc3C2CO)ccc1O[C@H]1O[C@H](C)[C@@H](O)[C@H](O)[C@@H]1O (some centres not stated)

Reply |
1. 2.63
2. -7.85
3. -0.439

// for each molecule in input: emit max response
1. COc1c(OC2OC(CO)C(O)C(O)C2O)ccc(O)c1C(=O)OCc1ccccc1O[C@@H]1O[C@H](CO)[C@@H](O)[C@H](O)[C@H]1O (some centres not stated)
2. O=C(c1ccccn1)c1cnn2c(-c3ccncc3)ccnc12
3. CC(=O)c1c(O)cc2cccc3c2c1CC(C)(O)O3 (configuration not stated)
4. CN1C(=O)c2ccccc2-n2c(nc3ccccc3c2=O)/C1=C/c1ccccc1

Reply |
-1.73
1.02
-0.44
3.9

# batch: return max response for each of the 5 molecules below
1. O=C(O)CCc1cc2ccoc2cc1O[C@@H]1O[C@H](CO[C@@H]2OC[C@](O)(CO)[C@H]2O)[C@@H](O)[C@H](O)[C@H]1O
2. Cc1cc(O)c(C(C)C)cc1O[C@@H]1O[C@H](CO)[C@@H](O)[C@H](O)[C@H]1O
3. C=C1C2(CCC(=O)OC2(C)C)CC(OC(=O)/C(C)=C/C)C2(C)C13OC14C(=O)OC(C)(C(=O)C12C(=O)OC4C)C3OC(C)=O (configuration not stated)
4. CC1=C(C)C(=O)OC(C(C)C2C(O)CC3C4C5OC5C5(O)CC(OC6OC(CO)C(O)C(O)C6O)CC(O)C5(C)C4CCC32C)C1 (configuration not stated)
5. Cc1cc(C)cc(NC(=O)Cc2ccc(OC(C)(C)C(=O)O)cc2)c1

Reply |
1. -2.27
2. 1.36
3. 4.63
4. -0.676
5. -1.99
